- procedure-details: Cytotoxicity against human HeLa cells after 24 hrs
- Type: cell-based
- protocol-conditions: read-out: CD50
Listed next: entries and their corresponding CC50 at 24 h.

smiles-input: COc1cc([C@@H]2CC(c3ccc(O)cc3O)=NN2C(=S)Nc2ccccc2OC)ccc1O
CC50 at 24 h / µM: 26
//
smiles-input: Oc1ccc([C@@H]2CC(c3ccc(O)cc3O)=NN2C(=S)Nc2ccccc2)cc1
CC50 at 24 h / µM: 63
//
smiles-input: Oc1ccccc1C1=NN(C(=S)Nc2ccccc2)[C@H](c2ccc(Cl)cc2)C1
CC50 at 24 h / µM: 5
//
smiles-input: COc1ccc(NC(=S)N2N=C(c3ccc(O)cc3O)C[C@H]2c2ccc(O)cc2)cc1
CC50 at 24 h / µM: 62
//
smiles-input: Oc1ccccc1[C@@H]1CC(c2ccccc2)=NN1C(=S)Nc1ccccc1
CC50 at 24 h / µM: 19
//
smiles-input: COc1ccccc1[C@@H]1CC(c2ccccc2O)=NN1C(=S)Nc1ccccc1
CC50 at 24 h / µM: 6
